Source listed as patent US20260151519A1.

# assayed.target: T1, Human Nectin-4 (human, UniProt Q96NY8 32-349, limits assumed)
# T1 construct: Protein immobilised on the SPR chip; also called target protein
# T1 sequence: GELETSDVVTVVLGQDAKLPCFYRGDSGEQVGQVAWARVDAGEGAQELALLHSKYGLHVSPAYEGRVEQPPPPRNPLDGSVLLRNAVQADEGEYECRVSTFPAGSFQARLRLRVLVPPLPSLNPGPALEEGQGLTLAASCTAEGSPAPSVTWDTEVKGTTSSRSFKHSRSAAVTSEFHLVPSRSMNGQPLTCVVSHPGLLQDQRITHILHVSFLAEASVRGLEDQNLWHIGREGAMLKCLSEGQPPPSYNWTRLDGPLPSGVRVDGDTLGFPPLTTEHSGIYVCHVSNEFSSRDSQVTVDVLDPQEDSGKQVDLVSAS
# test: Table 2B (DELFIA or SPR)
Bridges are numbered along the chain shown (N, C = ends). Primed or numbered codes have the meaning given here. The star is where a group is joined. Biotin = O=C1N[C@H]2[C@H](CS[C@H]2CCCCC(=O)*)N1; PEG4″ = 4(ethylene glycol)
measurement.name: Kd
State the result as a value with its unit after it.

Would you please look over these solved cases?
> print(dat)
                                     binder  result
1  {Biotin-PEG4″}-CEYDEEFFTALARLRGGDICQYIQAKFAYVPGLCIEEILDNLGCS-OH (designed binder, disulfide 1-34, 20-44) [C155]  1.1 nM
2  {Biotin-PEG4″}-CEYDEEFFTALKRLRGGDICSYIQASFQYLPGLCIEEILDNLGCS-OH (designed binder, disulfide 1-34, 20-44) [C179]  1.8 nM

// Kd lookup, key: Ac-CEYDEEFFAGLKRLRGGDICYYIKKKFDKVPDLCIEEILDKLGC-OH (designed binder, disulfide 1-34, 20-44) [C9]
7.5 nM
